Source: patent US11718628B2

Test: Kinetic solubility
Format: physicochemical
Conditions: aqueous buffer, kinetic from dmso stock, pH 7.4 buffer, room temperature, 1.0% DMSO, read-out: I: kinetic solubility class
reported endpoint: solubility kinetic at 24 h

Recorded results for 3 compounds are shown here.
O=C(c1ccc(-c2cncc(-c3ccnc(C4CC4)c3)c2)c(Cl)c1)N1CC[C@H](O)C1 :: 10 to 60 µg/mL
CC(C)(C)c1cc(-c2cncc(-c3ccc(C(=O)N4CCC[C@@H]4CO)cc3Cl)c2)ccn1 :: 10 to 60 µg/mL
CC(C)(C)c1cc(-c2cncc(-c3ccc(C(=O)N4CCC[C@@H]4C(C)(C)O)cc3Cl)c2)ccn1 :: 10 to 60 µg/mL

Need solubility kinetic at 24 h of CC(C)(CNC(=O)c1ccc(-c2cncc(-c3ccnc(C(C)(C)C)c3)c2)c(Cl)c1)C(=O)O , thanks.
10 to 60 µg/mL

Need solubility kinetic at 24 h of CC1CC(O)CC(C)N1C(=O)c1ccc(-c2cncc(-c3ccnc(C(C)(C)C)c3)c2)c(Cl)c1 (stereo not drawn) , thanks.
10 to 60 µg/mL

Need solubility kinetic at 24 h of CC(C)(C)c1cc(-c2cc(-c3ccc(C(=O)N4CCC(O)CC4)cc3Cl)c3ccncc3c2)ccn1 , thanks.
10 to 60 µg/mL

Need solubility kinetic at 24 h of CC(C)(CO)c1cc(-c2cncc(-c3ccc(NS(C)(=O)=O)cc3Cl)c2)ccn1 , thanks.
< 10 µg/mL

Need solubility kinetic at 24 h of CC(C)(C)c1cc(-c2cncc(-c3ccc(C(=O)N4CCC[C@H]4C(C)(C)O)cc3Cl)c2)ccn1 , thanks.
10 to 60 µg/mL

Need solubility kinetic at 24 h of CC(C)(C)c1cc(-c2cncc(-c3ccc(C(=O)N4CC(C(C)(C)O)C4)cc3Cl)c2)ccn1 , thanks.
10 to 60 µg/mL

Need solubility kinetic at 24 h of CC(C)NS(=O)(=O)Nc1ccc(-c2cncc(-c3ccnc(C(C)(C)C)c3)c2)c(Cl)c1 , thanks.
10 to 60 µg/mL

Need solubility kinetic at 24 h of Cc1c(-c2ccnc(C(C)(C)C)c2)cncc1-c1ccc(C(=O)N2CCC(O)CC2)cc1Cl , thanks.
10 to 60 µg/mL

Need solubility kinetic at 24 h of O=C(c1ccc(-c2cncc(-c3ccnc(C4CC4)c3)c2)c(Cl)c1)N1CCC(F)CC1 , thanks.
10 to 60 µg/mL

Need solubility kinetic at 24 h of CC(C)(C)c1cc(-c2cc(F)cc(-c3ccc(C(=O)N4CCC(O)CC4)cc3Cl)c2)ccn1 , thanks.
< 10 µg/mL

Need solubility kinetic at 24 h of CC(C)(C)c1cc(-c2cncc(-c3ccc(C(=O)N4CCC[C@H]4CO)cc3Cl)c2)ccn1 , thanks.
10 to 60 µg/mL

Need solubility kinetic at 24 h of CC(C)(C)c1cc(-c2cncc(-c3ccc(NS(C)(=O)=O)cc3Cl)c2)ccn1 [drawing 346] , thanks.
< 10 µg/mL

Need solubility kinetic at 24 h of CC(C)(C)c1cc(-c2cncc(-c3ccc(C(=O)N4CCC(O)C(O)CC4)cc3Cl)c2)ccn1 (stereo not drawn) , thanks.
10 to 60 µg/mL

Need solubility kinetic at 24 h of CC(C)(C)c1cc(-c2cncc(-c3ccc(C(=O)N4CC[C@H](O)C4)cc3Cl)c2)ccn1 , thanks.
10 to 60 µg/mL

Need solubility kinetic at 24 h of O=C(c1ccc(-c2cncc(-c3ccnc(C4(O)CCC4)c3)c2)c(Cl)c1)N1CCC(O)CC1 , thanks.
10 to 60 µg/mL

###

Experiment: Kinetic solubility
Format: physicochemical
Conditions: aqueous buffer, kinetic from dmso stock, pH 7.4 buffer, room temperature, 1.0% DMSO, read-out: I: kinetic solubility class
# maps each entry to its solubility kinetic at 24 h

Recorded results for 10 molecules are shown here.
CC(C)(C)c1cc(-c2cccc(-c3ccc(C(=O)N4CCC(O)CC4)cc3Cl)c2F)ccn1 :: < 10 µg/mL
COc1ncc(-c2ccc(C(=O)N3CCC(O)CC3)cc2Cl)cc1-c1ccnc(C(C)(C)C)c1 :: 10 to 60 µg/mL
Cc1cc(S(=O)(=O)NC(C)C)ccc1-c1cncc(-c2ccnc(C(C)(C)C)c2)c1 :: 10 to 60 µg/mL
CC(C)(C)c1cc(-c2cncc(-c3ccc(C(=O)N4CC5CCC(C4)C5O)cc3Cl)c2)ccn1 (stereo not drawn) :: < 10 µg/mL
CC(C)(C)c1cc(-c2cncc(-c3ccc(C(=O)N4CC5C(O)C5C4)cc3Cl)c2)ccn1 (stereo not drawn) :: 10 to 60 µg/mL
CC(C)(C)c1cc(-c2cncc(-c3ccc(C(=O)N4CCC(F)CC4)cc3Cl)c2)ccn1 :: < 10 µg/mL
CC(C)(C)c1cc(-c2cncc(-c3ccc(C(=O)N4CC(O)C4)cc3Cl)c2)ccn1 :: 10 to 60 µg/mL
Cc1cc(C(=O)N2CCC(O)CC2)ccc1-c1cncc(-c2ccnc(C(C)(C)C)c2)c1 [drawing 337] :: 10 to 60 µg/mL
CC(C)OC(=O)Nc1ccc(-c2cncc(-c3ccnc(C(C)(C)CO)c3)c2)c(Cl)c1 :: < 10 µg/mL
O=C(c1ccc(-c2cncc(-c3ccnc4c3CCC4)c2)c(Cl)c1)N1CCC(O)CC1 :: 10 to 60 µg/mL

Need solubility kinetic at 24 h of CC(C)(C)c1cc(-c2cncc(-c3ccc(C(=O)N4CCC(O)C(O)C4)cc3Cl)c2)ccn1 (stereo not drawn) [drawing 419] , thanks.
10 to 60 µg/mL

Need solubility kinetic at 24 h of O=C(c1ccc(-c2cncc(-c3ccnc(C4CC4)c3)c2)c(Cl)c1)N1CCC(O)CC1 , thanks.
10 to 60 µg/mL

Need solubility kinetic at 24 h of O=C(c1ccc(-c2cncc(-c3ccnc(C4(F)CCC4)c3)c2)c(Cl)c1)N1CCC(O)CC1 , thanks.
10 to 60 µg/mL

Need solubility kinetic at 24 h of CN(C)c1cc(-c2ccnc(C(C)(C)C)c2)cc(-c2ccc(C(=O)N3CCC(O)CC3)cc2Cl)c1 , thanks.
< 10 µg/mL

Need solubility kinetic at 24 h of CC(C)(C)c1cc(-c2cccc(-c3ccc(NC(=O)N4CCC(O)CC4)cc3Cl)c2)ccn1 , thanks.
< 10 µg/mL

###

Assay: Plasma and liver compound levels in mice after oral administration
Type: in vivo
Conditions: 30 mpk, 24 h
Method: The pharmacodynamic properties of selected compounds were evaluated in mice. The animals were housed in cages with clean bedding, and maintained and monitored for good health in accordance with Test Facility SOPs and at the discretion of the laboratory animal veterinarian. […] Aliquots of the compounds being evaluated were weighed and triturated with 0.5% methylcellulose (with the addition of 5% N-methyl pyrrolidone when required to remove clumping, as for Z-806) to an appropriate dose concentration. […]
reported endpoint: Plasma ng/mL (24 h)

Recorded results for 2 molecules are shown here.
CC(C)(C)c1cc(-c2cccc(-c3ccc(C(=O)N4CCC(O)CC4)cc3Cl)c2)ccn1 [Compound Z-744] :: 100 to 1000 ng/mL
Cc1cc(C(=O)N2CCC(O)CC2)ccc1-c1cncc(-c2ccnc(C(C)(C)C)c2)c1 [Compound Z-817] :: <100 ng/mL

Need Plasma ng/mL (24 h) of CC(C)OC(=O)Nc1ccc(-c2cncc(-c3ccnc(C(C)(C)C)c3)c2)c(Cl)c1 [Compound Z-774] , thanks.
100 to 1000 ng/mL

Need Plasma ng/mL (24 h) of CC1(O)CCN(C(=O)c2ccc(-c3cncc(-c4ccnc(C(C)(C)C)c4)c3)c(Cl)c2)CC1 [Compound Z-780] , thanks.
<100 ng/mL

Need Plasma ng/mL (24 h) of CC(C)(C)c1cc(-c2cncc(-c3ccc(C(=O)N4CCC(O)CC4)cc3Cl)c2)ccn1 [Compound Z-725] , thanks.
<100 ng/mL

Need Plasma ng/mL (24 h) of CC(C)(C)c1cc(-c2cncc(-c3c(Cl)cc(C(=O)N4CCC(O)CC4)cc3Cl)c2)ccn1 [Z-826] , thanks.
100 to 1000 ng/mL

###

Assay: Kinetic solubility
Assay type: physicochemical
Settings: aqueous buffer, kinetic from dmso stock, pH 7.4 buffer, room temperature, 1.0% DMSO, read-out: I: kinetic solubility class
reported endpoint: solubility kinetic at 24 h

CC(C)(C)c1cc(-c2cncc(-c3ccc(NC(=O)OCCN4CCCC4)cc3Cl)c2)ccn1 :: 10 to 60 µg/mL

Need solubility kinetic at 24 h of CC(C)(C)c1cc(-c2cncc(-c3ccc(C(=O)N4CCC(O)CC4)cc3)c2F)ccn1 [drawing 321] , thanks.
10 to 60 µg/mL

Need solubility kinetic at 24 h of CS(=O)(=O)Nc1ccc(-c2cncc(-c3ccnc(C4CC4)c3)c2)c(Cl)c1 , thanks.
< 10 µg/mL

Need solubility kinetic at 24 h of CC(C)(C)c1cc(-c2cccc(-c3ccc(NS(C)(=O)=O)cc3Cl)c2F)ccn1 , thanks.
< 10 µg/mL

Need solubility kinetic at 24 h of CC(C)(C)c1cc(-c2cncc(-c3ccc(NC(=O)OC4CCC(O)CC4)cc3Cl)c2)ccn1 (centres unmarked) , thanks.
< 10 µg/mL
